substrate: ICOS (Homo sapiens (Human)) (UniProt Q9Y6W8); experiment: flow cytometry, transfected cells
Sequence (Q9Y6W8 21-199 limits assumed): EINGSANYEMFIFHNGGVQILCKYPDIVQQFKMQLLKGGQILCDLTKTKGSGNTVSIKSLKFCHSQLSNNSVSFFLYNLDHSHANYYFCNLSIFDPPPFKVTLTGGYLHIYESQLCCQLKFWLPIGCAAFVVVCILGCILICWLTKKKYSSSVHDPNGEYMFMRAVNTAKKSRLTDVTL
readout-name: MFI ratio to WT (ΔWT) (fold)
The answer is to be given in fold; state only the numeric part.

Below, 2 binders whose answers are already recorded.
Ask | What value of MFI ratio to WT (ΔWT) has been reported for the following binder? ICOSL-Fc N52M/N57H/Q100S (Fc fusion) DTQEKEVRAMVGSDVELSCACPEGSRFDLNDVYVYWQTSESKTVVTYHIPQMSSLEHVDSRYRNRALMSPAGMLRGDFSLRLFNVTPQDEQKFHCLVLSSSLGFQEVLSVEVTLHVAANFSVPVVSAPHSPSQDELTFTCTSINGYPRPNVYWINKTDNSLLDQALQNDTVFLNMRGLYDVVSVLRIARTPSVNIGCCIENVLLQQNLTVGSQTGNDIGERDKITENPVSTGEKNAAT
Reply | 1.25

Ask | What value of MFI ratio to WT (ΔWT) has been reported for the following binder? ICOSL-Fc N52L/N57V (Fc fusion) DTQEKEVRAMVGSDVELSCACPEGSRFDLNDVYVYWQTSESKTVVTYHIPQLSSLEVVDSRYRNRALMSPAGMLRGDFSLRLFNVTPQDEQKFHCLVLSQSLGFQEVLSVEVTLHVAANFSVPVVSAPHSPSQDELTFTCTSINGYPRPNVYWINKTDNSLLDQALQNDTVFLNMRGLYDVVSVLRIARTPSVNIGCCIENVLLQQNLTVGSQTGNDIGERDKITENPVSTGEKNAAT
Reply | 1.21

Continue with the binder presented below.
Ask | What value of MFI ratio to WT (ΔWT) has been reported for the following binder? ICOSL-Fc N52S/N57Y/Q100M (Fc fusion) DTQEKEVRAMVGSDVELSCACPEGSRFDLNDVYVYWQTSESKTVVTYHIPQSSSLEYVDSRYRNRALMSPAGMLRGDFSLRLFNVTPQDEQKFHCLVLSMSLGFQEVLSVEVTLHVAANFSVPVVSAPHSPSQDELTFTCTSINGYPRPNVYWINKTDNSLLDQALQNDTVFLNMRGLYDVVSVLRIARTPSVNIGCCIENVLLQQNLTVGSQTGNDIGERDKITENPVSTGEKNAAT
Reply | 1.43

The reported numbers originate from patent US20250163127A1.
